The origin of these recorded values is the nanobody polyreactivity screen of Harvey et al. (2022).

assay: yeast display, Sf9 membrane polyspecificity reagent, FACS + sequencing; frameworks hold sequencing errors

macromolecule-sequence	polyreactivity (PSR sort gate)
QVQVVESGGGLVQAGGSLRLSCAASGGTFGRYTMGWYRQAPGKERELVAAITYGGGSTYYADSVKGRFTISRDNAKNTVYLQMNSLKPEETAVYYCARRGILRGSRYDYWGQGTQVTVSS	high polyreactivity
QVQLVESGGGLVQAGGSLRLSCAASGSTFDLYAMGWYRQAPGKERELVAGISRGGSTYYADSVKGRFTISRDNAKNTVYLQMNSLKPEDTAVYYCAAYFRYRSSRYGYWGQGTQVTVSS	high polyreactivity

---

assay: yeast display, Sf9 membrane polyspecificity reagent, FACS + sequencing; frameworks hold sequencing errors
test-readout: polyreactivity (PSR sort gate)

macromolecule-sequence	result
QVQLEESGGGLVQAGGSLRLSCAASGSTFHTYAMGWYRQAPGKERELVASISYGVTTYYADSVKGRFTISRDNAKNTVYLQMNSLTPEDTAVYYCAREGYNWVYLSYGYWGQGTQVTVSS	low polyreactivity
QVQLVESGGGLVQAGGSLRLSCAASGSTFVPYAMGWYRQAPGKERELVASITYSGGSTSYADSVKGRVTISRDTAKNTVYLQMNSLKPEDTAVNYCAAVPWVVYSGYDYWGQGTQVTVSS	low polyreactivity
QVQLVESGGGLVQAGGSLRLSCAASGFTFIYYAMGWYRQAPGKERELVAAIRWSGGSTYYADSVKGRFTISRDNAKNTVYLQMNSLKPEDTAVYYCAARAIYKSKYDYWGQGTQVTVSS	high polyreactivity
QVQLEESGGGLVQAGRSLRLSCAASGRIFWRYVMGWYRQAPGKERELVAAINRNGDNTSYADSVKGRFTISRDTAKNTVYLQMNSLKPEHTEVHYCNADWWWGYGYWGQGTQVSVSS	low polyreactivity
QDQLVESGGGLVQAGGRLRLSCAASGSTFWWYDMGWYRKAHGKDRELVAAINWSGGSTYYADSVKGRFTISRDNAKNTVYLQMNSLKPEDTAVYYCAKVGRETEYDYWGQGTQVTVSS	high polyreactivity

---

experiment: yeast display, Sf9 membrane polyspecificity reagent, FACS + sequencing; frameworks hold sequencing errors

macromolecule-sequence	polyreactivity (PSR sort gate)
QVQLVESGGGLVQAGGSLRLSCAASVFTFTKYAMGWYRQAPGKERELVAAITRRGGRTYYADSVKGRFTISRDNAKNTVYLQMNSLKPEDTAVYYFNADIIWGSVSNGSEYDYWGQGTQVTVSS	high polyreactivity
QVQLVESGGGLVQAGGSLRLSCAASGRIFRAYARGWYRQAPGKERELVAAITRGGGTYYADSVKGRFTISRDNAKNSVYLQMNSLKPEDTAVYYCAAGRQRGPGYYFTFDYWGQGTQVTVSS	high polyreactivity
QVQLVESGGGLVQAGGSLRLSCAASGLNFYSNAMGWYRQAPGKERELVARISTGGSTYADSVKGRFTISRDNAKNTVYLQMNSLKPEDTAVYYCAKLPPRGIDDEYWGQGSQVTVSS	low polyreactivity
QVQLVDSGGGLVQAGGSLRLSCAASGRTFYTYAMGWYRVAPGKEWELVAAITGGGSTTYADSVKGRFTISRDNAKNTVYLQMNSLKPEDTEVYYCAALIYGPERVVDEYDYWGQGTQVTVSS	low polyreactivity
QVQLVESGGGLVQAGGSLRLSCAASGSILYFNAMGWYRQAPGKEREFVATIRRSGGSTNYADSVKGRFTISRDNAKNTVYLQMNSVKREDTAVYYCNARLSSGYTSWRYNYWGQGTQVSVSS	high polyreactivity

---

assay: yeast display, Sf9 membrane polyspecificity reagent, FACS + sequencing; frameworks hold sequencing errors

macromolecule-sequence	polyreactivity (PSR sort gate)
HVQLQETGGGLVQAGGSLRLSCAASGSIFQATYMGWYRQAPGKEREFVASITYGSITIYADSVKGRFTIGRDNAKDTLYLQMNSLKPEDTAVYYCAVDRHYIPAFHYWGQGTQVTVSS	low polyreactivity
QVQLVESGGGLVQAGGSLRLSCAPSGRIFAYNTMGGYRQAPGKERELVAVSTSGGSTNYADSVKRRFTISRDNAKNTVYLQMNSLKTEDTAVYYCATLETTGVNYWGQGTQVTVSS	high polyreactivity
QVQLVESGGGLVQAGGSLRLSCAASGYTFRYYAMGWYRQAPGKEREFVAAITWSDSGTYYADSVKGRFTISRDNAKNTVYLQMNSLKPEDTAVYYCAAERYLSFDRYLYEYYYWGQGTQVTVSS	low polyreactivity
QVQLVESGGGLVQAGGSLRLSSAASGFIFAIYSMGWYRQAPGKERELVAAISRSGGRTYYADSVKGRFTISRDIAKNTVYLQMISLKPEDTAVYYCNARFQYRGVKYYYWGKGTQVTVSS	high polyreactivity
QVQLEESGGGLVQAGGRLRLSCAASGIISAHYAMGWYRQAPGKERELVAAISSSGGSTYYADSVKGRFTISRDNAKNTVYLQMNSLKPEDTAVYYCNAEFYWGYDYWGQGTQVTVSS	low polyreactivity
QVQLVESGGGLVQAGGSLRLSCAASGSTFGYNAMAWYRQAPGKERELVAAISWSGGSTYYADSVKGRFTISRDNAKNTVYLQMNSLKPEDTAVYYCATPYVKWNDYWGQGTQVTVSS	low polyreactivity
QLQLVESGGGLVQAGGSLRLSCAASGSIFADYAMGWYRQAPGKEREFVAAITRSGTSTYYADSVKGRFTISRDNAKNTVYFQMNSLKPEDTAGYYCAKTEVLLYLYTLDYWGQGTQVTVSS	low polyreactivity
QVQLVESGGGLVQAGGSLRLSCAASGSIFPGYAMGWYRQAPGKERELVATITYSDGSTYYADSVKGRFTISRDNAKNTVSLQMNSLKPEDTAVYYCNAASRGAGTSIWSWYDHWGQGTQVTVSS	low polyreactivity
QVQLVESGGGLVQAGGSLRLSCAASGFIFQKYAMGWYRQAPGKERELVAAISRSGGSTYYADSVKGRFTISRDNAKNTVYLQMNSLKPEDTAVYYCNAVYSTSRDYWGQGTQVTVSS	high polyreactivity
QVQLVESGGGLVQAGGSLRLSCAASGIIFRNNAMGWYRQAPGKERELVAAISRRGGSTSYADSVKGRFTISRDNAKNTVYLQMNSLKPEDTAVYYCNKAGPYYGYPHYLFYYWGQGTQVTVSS	high polyreactivity
QVQLVESGGGLVQAGGRLSLSCAASGSIFLYYAMGWYRQAPGKEREFVADISRSGGSTYYADSVKGRFTISRDNAKNTVYLQMNSLKPEDTAVYYCAASFYRYFVSLCYDYWGQGTQVSVSS	high polyreactivity
QVQLVESGGGLVQAGGSLRLSCAASGSTFVYYDMGWYRQAPGQERELVATINGSGSRTNYADSVKGRFTISRDYAKNTVYLQMNSLKPEDTAVYYCAADYISYLVAGGYEDDYWGQVTQVTVSS	low polyreactivity
QVQLVESGGGLVQAGGSLRLSCAASGSTFVGYAMGWYRHAPGKERELVAAISSSGGRTNYADSVKGRFTISRDNAKNTVYLQMNSLKPEDTAVYYCAAKAYRSPVYYWGQGTQVTVSS	high polyreactivity
QVQLVESGGGLVQAGGSLRLSCAASGRIFIAYAMGWYRQAPGKERELVAAITDDGGTNYADSVKGRFTISRDNAKNTVYLQMNSLKPEDTAVYYCAATYLIGYYYVWEYDYWGQGTHVTVSS	low polyreactivity
QVQLVESCGVLVQAGGSLRLSCDASGSIFVWNAMGWYREAPGKERELVAAIRSDDDSTYYADSVKGLFTISRDNAKNTVYLQMNCLNPEDTAVINALVDSPTFSHVKPWDGGDYWGQGTQVTVSS	low polyreactivity
QVQLVESGGGLVQAGGSLRLSCAASGSTFTGNAMGWYRQAPGKERELVAAITKGGSRTYYADSVKGRFTISRDNAKNTVYLQMNSLKPEDTAVYYCAATSRGTDYWGQGTQVTVSS	high polyreactivity
QVQLVESWGGLFQAGGRLRLSSAASGFTFPRYAMGWYRHSPGKERELVAAISRGGSTNYADSVKGRFTISRDNAMNTVYLQMNSLKPEVTAVYYCNVRLEYRYYRGDYWGQGTQVTVSS	high polyreactivity
QVQLVESGGGLVQAGGSLRLSCAASGSTYYRYDMGWYRQAPGKERELCAAINWNGGTTYYADSVKGRFTISRDNAKNNVYLQMNSLKPEDTAVYYCTARSNSYVYPRLYNYWGQGTQVTVSS	high polyreactivity
QVQLVESGGGLVQAGGRLRLSCAASGFTFNSYVMGWYRQAPGKERELVAAITRSGDRTYYADSVKGRFTISRDNAKNTVYLQMNSLKPEDTAVYYCAATWSINYYGWYYYWGQGTQVTVSS	high polyreactivity
HVQLVESGGGLVQAGGSLRLSFAASASIYQFYPMGWYRPAPGKERELVAGINNSGGSTYYADSVKGRFTISRDNAKNTVYLQMNSLKPEDTAVYYCMARSRYDTGRQRGYDYWGQGTQVTVSS	low polyreactivity
QVQLVESGGGLVQAGGSLRLSCAASGYTFYRYAMGWYRQAPGKERELVATISRGGSTDYADSVKGRFTISRDNAKNTVYLQMNSLKPEDTAVYYCAARAFSRLTTFYYWGQGTQVTVSS	high polyreactivity
